target: Neuropeptide Y receptor type 1 (Homo sapiens) (UniProt P25929); test: blockers of human neuropeptide Y Y1 receptor – cell-based, primary screen (AID 1040); settings: HEK293-CNG Y1 cells, membrane potential fluorescence; at 3.6 µM; active compounds read high; NPY at EC95, then isoproterenol;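 further: 0% = DMSO wells given NPY plus isoproterenol and 100% = isoproterenol alone without NPY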
Sequence (P25929 whole entry, looked up): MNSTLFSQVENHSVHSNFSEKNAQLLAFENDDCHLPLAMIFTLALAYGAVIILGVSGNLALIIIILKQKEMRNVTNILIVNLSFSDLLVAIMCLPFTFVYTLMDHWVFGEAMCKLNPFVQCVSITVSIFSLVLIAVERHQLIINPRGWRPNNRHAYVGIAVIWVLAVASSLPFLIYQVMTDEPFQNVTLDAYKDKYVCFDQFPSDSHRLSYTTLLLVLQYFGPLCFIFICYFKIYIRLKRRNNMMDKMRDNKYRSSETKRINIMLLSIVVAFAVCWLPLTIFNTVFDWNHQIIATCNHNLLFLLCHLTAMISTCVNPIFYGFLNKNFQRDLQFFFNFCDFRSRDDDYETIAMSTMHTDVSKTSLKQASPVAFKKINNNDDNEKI
Among all 200,000 compounds or so, about 2,000 (1%) were called active. This excerpt belongs to a sample that is enriched for actives.
In this section, each of the compounds is paired with its reported inhibition.

compound	assay-target	measurement-unit	inhibition
Cc1nc2cc(NC(=O)NC3CC3)ccc2n1C	Neuropeptide Y receptor type 1 (Homo sapiens) (UniProt P25929)	%	-0.07
CCOC(=O)C1CCCN(C(=O)COc2ccc(N(C)S(=O)(=O)c3ccc(C)cc3)cc2)C1 (stereo not drawn)	Neuropeptide Y receptor type 1 (Homo sapiens) (UniProt P25929)	%	2
CCC(=O)Nc1ccc(S(=O)(=O)NCC2CCCO2)cc1 (stereo not drawn)	Neuropeptide Y receptor type 1 (Homo sapiens) (UniProt P25929)	%	-5.94
CCC(=O)c1c[nH]c(C(=O)NCC2CCCO2)c1 (stereo not drawn)	Neuropeptide Y receptor type 1 (Homo sapiens) (UniProt P25929)	%	55.6
COC(=O)C1=C(C)N(c2ccc(C)cc2)/C(=C/c2ccc(O)cc2)C1=O	Neuropeptide Y receptor type 1 (Homo sapiens) (UniProt P25929)	%	2.2
COc1ccc(-c2cc(-c3ccc(N)cc3)nc(N)c2C#N)cc1OC	Neuropeptide Y receptor type 1 (Homo sapiens) (UniProt P25929)	%	7.06
Nc1nc(SCC(=O)NNc2c(Cl)cc(Cl)cc2Cl)n[nH]1	Neuropeptide Y receptor type 1 (Homo sapiens) (UniProt P25929)	%	8.35
CC(C)Cn1c(CN(Cc2ccccc2)Cc2ccccc2)nc2c1c(=O)n(C)c(=O)n2C	Neuropeptide Y receptor type 1 (Homo sapiens) (UniProt P25929)	%	13.4
